Reported switch fluorescence ratio is given for each of the following sequences.
tested on: ATP; test: switch fluorescence ratio, 500 uM ATP over buffer (Cy3 cluster intensity, sum of 5 cycles each) (fold (ratio)); higher = stronger signal-on switching upon ATP binding; sequences stand for … in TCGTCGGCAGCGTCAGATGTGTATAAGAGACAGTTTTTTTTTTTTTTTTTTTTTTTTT…TC; settings: aptamer strand: ATP DNA aptamer (quencher-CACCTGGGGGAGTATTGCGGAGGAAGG + anchor), 100 nM annealed; ATP concentration: 500 uM;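 note: ATP exposure 15 min at 22 °C before imaging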
Give your answer as a number; write no unit.

TTCCATAGGG | 0.987
TTTGGTGCTG | 0.983

Lab note: need switch fluorescence ratio with ATP for entry TTCCGGGGTA , please look it up. 1.02

Lab note: need switch fluorescence ratio with ATP for entry TTACTTGTAC , please look it up. 1.15

Lab note: need switch fluorescence ratio with ATP for entry TTACAGTTTT , please look it up. 0.944

Lab note: need switch fluorescence ratio with ATP for entry TGCTGGTTGG , please look it up. 0.998

Lab note: need switch fluorescence ratio with ATP for entry TGGGTATAAA , please look it up. 0.976

Lab note: need switch fluorescence ratio with ATP for entry TAAGTGGGCC , please look it up. 1

Lab note: need switch fluorescence ratio with ATP for entry TTTGTAAGTT , please look it up. 0.995

---

system: ATP; assay: switch fluorescence ratio, 500 uM ATP over buffer (Cy3 cluster intensity, sum of 5 cycles each) (fold (ratio)); higher = stronger signal-on switching upon ATP binding; sequences stand for … in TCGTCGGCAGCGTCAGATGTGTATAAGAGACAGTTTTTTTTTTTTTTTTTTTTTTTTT…TC; conditions: aptamer strand: ATP DNA aptamer (quencher-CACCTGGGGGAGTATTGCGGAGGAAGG + anchor), 100 nM annealed; ATP concentration: 500 uM;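 note: ATP exposure 15 min at 22 °C before imaging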
Reported switch fluorescence ratio is given for each of the following sequences.
Give your answer as a number; write no unit.

Guide cases for switch fluorescence ratio, answers given:
GTGATAGGGG | 0.994
AAAGTATATA | 1.02
ATTTTCTTCA | 1.02
ACACCCAAGT | 1.21
AATCATTGTA | 1.01
TTGTAGAATG | 0.982
GCATAGTGGT | 1.01
GGTTATAATG | 1.02

Lab note: need switch fluorescence ratio with ATP for entry GACTGACTGG , please look it up. 0.996

Lab note: need switch fluorescence ratio with ATP for entry CAACGGGCGG , please look it up. 1

---

tested on: ATP; experiment: switch fluorescence ratio, 500 uM ATP over buffer (Cy3 cluster intensity, sum of 5 cycles each) (fold (ratio)); higher = stronger signal-on switching upon ATP binding; sequences stand for … in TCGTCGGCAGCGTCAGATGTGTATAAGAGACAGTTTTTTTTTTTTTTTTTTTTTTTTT…TC; conditions: aptamer strand: ATP DNA aptamer (quencher-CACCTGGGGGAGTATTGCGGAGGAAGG + anchor), 100 nM annealed; ATP concentration: 500 uM;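 note: ATP exposure 15 min at 22 °C before imaging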
reportedProperty: switch fluorescence ratio
Give your answer as a number; write no unit.

GGGTCGCGCA | 1.02
TCATAAGTAT | 0.995
CGTTAGGGGG | 1.02
GTTTAGGAGG | 0.989
ACTTGACTTG | 1.03
TCCTCACTGT | 1.18
ATTGATGATA | 1.02
GCGGTAGCAG | 0.979

Form field: reported switch fluorescence ratio of AATAGGGGTA 0.987

Form field: reported switch fluorescence ratio of CTGTGGCTAT 1.01

Form field: reported switch fluorescence ratio of TAAGATTGTT 1.02

Form field: reported switch fluorescence ratio of GCGTTAAGGG 0.964

Form field: reported switch fluorescence ratio of TGGGAGGAGG 1.01

Form field: reported switch fluorescence ratio of CTGGAACAGT 0.976

Form field: reported switch fluorescence ratio of CGGTTATCCT 1.04

Form field: reported switch fluorescence ratio of CGAGGTACTG 1.01

Form field: reported switch fluorescence ratio of GCTTTATTTT 1.09

Form field: reported switch fluorescence ratio of ACAGGAGTTT 0.999

---

system: ATP; experiment: switch fluorescence ratio, 500 uM ATP over buffer (Cy3 cluster intensity, sum of 5 cycles each) (fold (ratio)); higher = stronger signal-on switching upon ATP binding; sequences stand for … in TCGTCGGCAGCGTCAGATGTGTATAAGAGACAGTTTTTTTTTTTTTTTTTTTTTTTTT…TC; details: aptamer strand: ATP DNA aptamer (quencher-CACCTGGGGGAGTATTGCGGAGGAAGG + anchor), 100 nM annealed; ATP concentration: 500 uM;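 note: ATP exposure 15 min at 22 °C before imaging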
reportedProperty: switch fluorescence ratio
Give your answer as a number; write no unit.

Guide cases for switch fluorescence ratio, answers given:
AGCGGATTCG | 0.969
GTACCCTATG | 1.07
TTTTTGGTTG | 1.01

Form field: reported switch fluorescence ratio of TAAAAGTCGG 1.01

Form field: reported switch fluorescence ratio of TTTTTACGGG 1.02

Form field: reported switch fluorescence ratio of TATGTTAGTG 1.01

Form field: reported switch fluorescence ratio of AATTGGATGG 1.02

Form field: reported switch fluorescence ratio of CTATGTTCGC 0.954

---

test system: ATP; assay: switch fluorescence ratio, 500 uM ATP over buffer (Cy3 cluster intensity, sum of 5 cycles each) (fold (ratio)); higher = stronger signal-on switching upon ATP binding; sequences stand for … in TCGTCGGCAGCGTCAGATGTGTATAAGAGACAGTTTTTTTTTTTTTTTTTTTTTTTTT…TC; settings: aptamer strand: ATP DNA aptamer (quencher-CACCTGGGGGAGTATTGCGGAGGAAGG + anchor), 100 nM annealed; ATP concentration: 500 uM;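 note: ATP exposure 15 min at 22 °C before imaging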
reportedProperty: switch fluorescence ratio
Give your answer as a number; write no unit.

Guide cases for switch fluorescence ratio, answers given:
CGAGAAAGAG | 0.983
CCTTTTTCTT | 1.04
TTCACAAGG | 1.02
GATGGGTCTG | 0.948
AGCTTGTTCG | 0.987

Form field: reported switch fluorescence ratio of TGGGGAAATA 1.41

Form field: reported switch fluorescence ratio of CAGGTGTGGG 1.2

Form field: reported switch fluorescence ratio of GTTGGTAGGA 1.01

Form field: reported switch fluorescence ratio of GGTTTACCGG 0.987

Form field: reported switch fluorescence ratio of TTAAAGTCGA 1.02

Form field: reported switch fluorescence ratio of TTTATAATAG 0.991

Form field: reported switch fluorescence ratio of TAAGCCTTTT 1.04

Form field: reported switch fluorescence ratio of TGGATGCTTG 1.01

Form field: reported switch fluorescence ratio of CCGTGGTATA 1.15

Form field: reported switch fluorescence ratio of AGTGGGTCGG 0.982

Form field: reported switch fluorescence ratio of TCCAGCGCGG 1.14

Form field: reported switch fluorescence ratio of GCCGGATTGG 0.956

Form field: reported switch fluorescence ratio of CCTTGGTACA 1.03

Form field: reported switch fluorescence ratio of GGTATGGGTG 1.02

Form field: reported switch fluorescence ratio of AGGGCGTCTG 1.01

Form field: reported switch fluorescence ratio of TAGCGTTTGG 1.01

Form field: reported switch fluorescence ratio of ACATGCGGTG 1

Form field: reported switch fluorescence ratio of GCGAGCGAAA 0.982

---

test system: ATP; assay: switch fluorescence ratio, 500 uM ATP over buffer (Cy3 cluster intensity, sum of 5 cycles each) (fold (ratio)); higher = stronger signal-on switching upon ATP binding; sequences stand for … in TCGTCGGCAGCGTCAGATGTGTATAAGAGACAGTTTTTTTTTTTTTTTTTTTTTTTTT…TC; details: aptamer strand: ATP DNA aptamer (quencher-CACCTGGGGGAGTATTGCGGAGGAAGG + anchor), 100 nM annealed; ATP concentration: 500 uM;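 note: ATP exposure 15 min at 22 °C before imaging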
reportedProperty: switch fluorescence ratio

Guide cases for switch fluorescence ratio, answers given:
TTTGCTAAAT | 1.02
TCATATTTTT | 1.01
CGTCGGGGCG | 1.02
AGCTTATCTA | 1

Form field: reported switch fluorescence ratio of TGGCGGTTTT 1.01

Form field: reported switch fluorescence ratio of CATTAGGCAA 1.7

Form field: reported switch fluorescence ratio of CATATGATTT 0.993

Form field: reported switch fluorescence ratio of TAATGGGAAA 1.04

Form field: reported switch fluorescence ratio of GACGAGATAG 1.17

Form field: reported switch fluorescence ratio of AAAAAATGCC 1.07

Form field: reported switch fluorescence ratio of GTCAATTTGA 0.978

Form field: reported switch fluorescence ratio of CGGGGATCGT 1

Form field: reported switch fluorescence ratio of TTGGATGTAC 1.14

Form field: reported switch fluorescence ratio of ACATGACGGT 1.06

Form field: reported switch fluorescence ratio of TTCTGTTATC 1.02

Form field: reported switch fluorescence ratio of CGGCTGAATT 1

Form field: reported switch fluorescence ratio of GCTCTGGGGT 1.02

Form field: reported switch fluorescence ratio of CTAAGCCGTT 0.971

Form field: reported switch fluorescence ratio of ATTATATGTG 1.02

Form field: reported switch fluorescence ratio of GGTTCAGGTG 3.38
